# procedure.summary: The drug is tested on Bacteroides vulgatus strain: ATCC8482 for biotransformation. The drug concentrations were measured before and after a 12-h incubation by liquid-chromatography-coupled mass spectrometry (LC–MS)
# test.parameters: phocaeicola vulgatus, 2 µM
quantity.measured: Bacterial Biotransformation

molecule	quantity.measured	value
CC(C)(C)NC[C@H](O)COc1nsnc1N1CCOCC1.O=C(O)/C=C\C(=O)O [TIMOLOL MALEATE]	Bacterial Biotransformation	Compound NOT metabolized
O=C(Nc1ccccc1)OCC(CN1CCCCC1)OC(=O)Nc1ccccc1 (stereo not drawn)	Bacterial Biotransformation	Compound NOT metabolized
CN1CCc2c(c3ccccc3n2Cc2ccccc2)C1.CN1CCc2c(c3ccccc3n2Cc2ccccc2)C1.O=S(=O)(O)c1cccc2c(S(=O)(=O)O)cccc12	Bacterial Biotransformation	Compound NOT metabolized
Nc1nc(NC2CC2)c2ncn([C@H]3C=C[C@@H](CO)C3)c2n1.Nc1nc(NC2CC2)c2ncn([C@H]3C=C[C@@H](CO)C3)c2n1.O=S(=O)(O)O [ABACAVIR SULFATE]	Bacterial Biotransformation	Compound NOT metabolized
CC(C)(C)NCC(O)c1cc(Cl)c(N)c(Cl)c1 (stereo not drawn)	Bacterial Biotransformation	Compound NOT metabolized
Nc1c2c(nc3ccccc13)CCCC2	Bacterial Biotransformation	Compound NOT metabolized
COC1=C(OC)C(=O)C(CCCCCCCCCCO)=C(C)C1=O	Bacterial Biotransformation	Compound metabolized
CCN(CC)C(=O)/C(C#N)=C/c1cc(O)c(O)c([N+](=O)[O-])c1	Bacterial Biotransformation	Compound metabolized
CC(=O)Oc1ccc(C(c2ccc(OC(C)=O)cc2)c2ccccn2)cc1	Bacterial Biotransformation	Compound metabolized
CC(CN1c2ccccc2Sc2ccccc21)N(C)C (stereo not drawn)	Bacterial Biotransformation	Compound NOT metabolized
CN1CCc2cccc3c2[C@H]1Cc1ccc(O)c(O)c1-3	Bacterial Biotransformation	Compound NOT metabolized
CC(CN(C)C)CN1c2ccccc2CCc2ccccc21.O=C(O)/C=C\C(=O)O (stereo not drawn) [TRIMIPRAMINE MALEATE]	Bacterial Biotransformation	Compound NOT metabolized
CN(C/C=C/C#CC(C)(C)C)Cc1cccc2ccccc12	Bacterial Biotransformation	Compound NOT metabolized
CC(C)[C@H]1CC[C@H](C(=O)N[C@H](Cc2ccccc2)C(=O)O)CC1 [NATEGLINIDE]	Bacterial Biotransformation	Compound metabolized
CN(C)CCc1c[nH]c2ccc(CS(=O)(=O)N3CCCC3)cc12	Bacterial Biotransformation	Compound NOT metabolized
Cc1cc(C)cc(OCC2CNC(=O)O2)c1 (stereo not drawn)	Bacterial Biotransformation	Compound metabolized
C[C@]12CCC(=O)C=C1[C@@H]1C[C@@H]1[C@H]1[C@@H]3[C@@H]4C[C@@H]4[C@@]4(CCC(=O)O4)[C@@]3(C)CC[C@@H]12	Bacterial Biotransformation	Compound metabolized
OC(c1cc(C(F)(F)F)nc2c(C(F)(F)F)cccc12)C1CCCCN1 (stereo not drawn)	Bacterial Biotransformation	Compound NOT metabolized

* * *

# test.parameters: bifidobacterium adolescentis, 12 h, 2 µM
# Description: The drug is tested on Bifidobacterium adolescentis strain: ATCC 15703 for biotransformation. The drug concentrations were measured before and after a 12-h incubation by liquid-chromatography-coupled mass spectrometry (LC–MS)
quantity.measured: Bacterial Biotransformation

> print(dat)
                                   compound                     value
1  CN1[C@@H]2CC[C@H]1C[C@@H](OC(=O)c1c[nH]c3ccccc13)C2  Compound NOT metabolized
2  O=C(O[C@H]1C[C@H]2CC[C@@H](C1)[N+]21CCCC1)C(O)(c1ccccc1)c1ccccc1.[Cl-] [TROSPIUM CHLORIDE]  Compound NOT metabolized
3  C[C@]12CCC(=O)C=C1[C@@H]1C[C@@H]1[C@H]1[C@@H]3[C@@H]4C[C@@H]4[C@@]4(CCC(=O)O4)[C@@]3(C)CC[C@@H]12  Compound NOT metabolized

* * *

# procedure.summary: The drug is tested on Blautia luti strain: DSM14534 for biotransformation. The drug concentrations were measured before and after a 12-h incubation by liquid-chromatography-coupled mass spectrometry (LC–MS)
# Assay type: ADME
# Set-up: dose 2 uM, timepoint 0 vs 12 hours
# test.parameters: 2 µM
quantity.measured: Bacterial Biotransformation

> print(dat)
                                    compound                     value
 1  CCN(CC)CCNC(C(=O)OCCC(C)C)c1ccccc1.Cl.Cl (configuration not stated)  Compound NOT metabolized
 2        OC(Cn1cncn1)(Cn1cncn1)c1ccc(F)cc1F  Compound NOT metabolized
 3       CCS(=O)(=O)CCn1c([N+](=O)[O-])cnc1C      Compound metabolized
 4  CCN(CC)CC#CCOC(=O)C(O)(c1ccccc1)C1CCCCC1.Cl (configuration not stated) [OXYBUTYNIN CHLORIDE]      Compound metabolized
 5    CC(=O)Nc1ccc(OC(C)=O)cc1 [DIACETAMATE]      Compound metabolized
 6  COC(=O)C1=C(C)NC(C)=C(C(=O)OC(C)C)C1c1cccc2nonc12 (configuration not stated)  Compound NOT metabolized
 7       CCC(=O)NCC[C@@H]1CCc2ccc3c(c21)CCO3  Compound NOT metabolized
 8  COC(=O)[C@H](c1ccccc1Cl)N1CCc2sccc2C1.O=S(=O)(O)O [CLOPIDOGREL BISULFATE]  Compound NOT metabolized
 9  COc1cc2nc(N3CCN(C(=O)c4ccco4)CC3)nc(N)c2cc1OC  Compound NOT metabolized
10      CN(C/C=C/C#CC(C)(C)C)Cc1cccc2ccccc12  Compound NOT metabolized
11  C[C@@H](CO)NC(=O)[C@@H]1C=C2c3cccc4[nH]cc(c34)C[C@H]2N(C)C1.O=C(O)/C=C\C(=O)O [ERGONOVINE MALEATE]  Compound NOT metabolized
12       CC(=O)CCCCn1c(=O)c2c(ncn2C)n(C)c1=O  Compound NOT metabolized

* * *

# procedure.summary: The drug is tested on Bacteroides coprophilus strain: DSM18228 for biotransformation. The drug concentrations were measured before and after a 12-h incubation by liquid-chromatography-coupled mass spectrometry (LC–MS)
# test.parameters: 2 µM

compound	Bacterial Biotransformation
CCS(=O)(=O)CCn1c([N+](=O)[O-])cnc1C	Compound NOT metabolized
CO[C@]12C[C@@H](COC(=O)c3cncc(Br)c3)CN(C)[C@@H]1Cc1cn(C)c3cccc2c13	Compound NOT metabolized
CC(=O)O[C@H]1C(=O)[C@@]2(C)[C@H]([C@H](OC(=O)c3ccccc3)[C@]3(O)C[C@H](OC(=O)[C@H](O)[C@@H](NC(=O)c4ccccc4)c4ccccc4)C(C)=C1C3(C)C)[C@]1(OC(C)=O)CO[C@@H]1C[C@@H]2O	Compound NOT metabolized
CCN(CC)C(C)CN1c2ccccc2Sc2ccccc21 (configuration not stated)	Compound NOT metabolized
Nc1nc(N)nc(-c2cc(Cl)ccc2Cl)n1.O=C(O)/C=C\C(=O)O [IRSOGLADINE MALEATE]	Compound NOT metabolized
CC(=O)OCC(=O)[C@@]1(O)[C@@H](C)C[C@H]2[C@@H]3CCC4=CC(=O)C=C[C@]4(C)[C@@]3(F)[C@@H](O)C[C@@]21C [BETAMETHASONE ACETATE]	Compound metabolized
COc1ccc2c3c1O[C@H]1C[C@@H](O)C=C[C@@]31CCN(C)C2	Compound metabolized

* * *

# test.parameters: bacteroides thetaiotaomicron, 12 h, 2 µM
# Description: The drug is tested on Bacteroides thetaiotaomicron strain: VPI-5482 for biotransformation. The drug concentrations were measured before and after a 12-h incubation by liquid-chromatography-coupled mass spectrometry (LC–MS)
quantity.measured: Bacterial Biotransformation

> print(dat)
                                    compound            quantity.measured                     value
 1  C=CCc1ccccc1OCC(O)CNC(C)C (stereo not given)  Bacterial Biotransformation  Compound NOT metabolized
 2  CCN(CC)CCNC(=O)c1cc(Cl)c(N)cc1OC [METOCLOPRAMIDE]  Bacterial Biotransformation  Compound NOT metabolized
 3     CN1CCN(C2=Nc3cc(Cl)ccc3Nc3ccccc32)CC1  Bacterial Biotransformation  Compound NOT metabolized
 4  CC(C)(C)NC(=O)[C@H]1CC[C@H]2[C@@H]3CC[C@H]4NC(=O)C=C[C@]4(C)[C@H]3CC[C@]12C [FINASTERIDE]  Bacterial Biotransformation  Compound NOT metabolized
 5  O=P1(N(CCCl)CCCl)NCCCO1 (stereo not given) [CYCLOPHOSPHAMIDE ANHYDROUS]  Bacterial Biotransformation  Compound NOT metabolized
 6  CCCCC1=NC2(CCCC2)C(=O)N1Cc1ccc(-c2ccccc2-c2nnn[nH]2)cc1  Bacterial Biotransformation      Compound metabolized
 7  CC(C)(C(=O)O)c1ccc(C(O)CCCN2CCC(C(O)(c3ccccc3)c3ccccc3)CC2)cc1 (stereo not given) [FEXOFENADINE]  Bacterial Biotransformation  Compound NOT metabolized
 8  CN1CCN(C(=O)O[C@H]2c3nccnc3C(=O)N2c2ccc(Cl)cn2)CC1  Bacterial Biotransformation  Compound NOT metabolized
 9  CC[C@@]1(O)C(=O)OCc2c1cc1n(c2=O)Cc2cc3c(CN(C)C)c(O)ccc3nc2-1  Bacterial Biotransformation  Compound NOT metabolized
10     O=C(O)CCc1nc(-c2ccccc2)c(-c2ccccc2)o1  Bacterial Biotransformation      Compound metabolized
11                 Nc1nc2ccc(OC(F)(F)F)cc2s1  Bacterial Biotransformation      Compound metabolized
12    COC1=C(OC)C(=O)C(CCCCCCCCCCO)=C(C)C1=O  Bacterial Biotransformation  Compound NOT metabolized
13  CCOC(=O)[C@H](CCc1ccccc1)N[C@H]1CCc2ccccc2N(CC(=O)O)C1=O  Bacterial Biotransformation      Compound metabolized
14  CCOC(=O)C1=C[C@]2(CC)CCCN3CCc4c(n1c1ccccc41)[C@@H]32  Bacterial Biotransformation  Compound NOT metabolized
15   CCc1oc2ccccc2c1C(=O)c1cc(Br)c(O)c(Br)c1  Bacterial Biotransformation  Compound NOT metabolized
16  CC(C)NCC(O)COc1ccc(CCOCC2CC2)cc1 (stereo not given)  Bacterial Biotransformation  Compound NOT metabolized
17  N#Cc1ccc2[nH]cc(CCCCN3CCN(c4ccc5oc(C(N)=O)cc5c4)CC3)c2c1  Bacterial Biotransformation      Compound metabolized
18  COc1ccccc1OCCNCC(O)COc1cccc2[nH]c3ccccc3c12 (stereo not given)  Bacterial Biotransformation      Compound metabolized
19  O=C1C(CC[S+]([O-])c2ccccc2)C(=O)N(c2ccccc2)N1c1ccccc1 (stereo not given)  Bacterial Biotransformation  Compound NOT metabolized
20  O=C(O[C@H]1C[C@H]2CC[C@@H](C1)[N+]21CCCC1)C(O)(c1ccccc1)c1ccccc1.[Cl-] [TROSPIUM CHLORIDE]  Bacterial Biotransformation  Compound NOT metabolized
21  CCOc1ccc2nc(S(N)(=O)=O)sc2c1 [ETHOXZOLAMIDE]  Bacterial Biotransformation      Compound metabolized
22  Cc1ccccc1C(OCCN(C)C)c1ccccc1.O=C(O)CC(O)(CC(=O)O)C(=O)O (stereo not given) [ORPHENADRINE CITRATE]  Bacterial Biotransformation  Compound NOT metabolized
23  C=CCN1CC[C@]23c4c5ccc(O)c4O[C@H]2C(=O)CC[C@@]3(O)[C@H]1C5  Bacterial Biotransformation      Compound metabolized
24  CN1CCN(C2=Nc3ccccc3Oc3ccc(Cl)cc32)CC1.O=C(O)CCC(=O)O [LOXAPINE SUCCINATE]  Bacterial Biotransformation  Compound NOT metabolized
25  CN1CCN(CC/C=C2/c3ccccc3Sc3ccc(S(=O)(=O)N(C)C)cc32)CC1  Bacterial Biotransformation  Compound NOT metabolized
26  COC(=O)C1=C(C)NC(C)=C(C(=O)OC(C)C)C1c1cccc2nonc12 (stereo not given)  Bacterial Biotransformation  Compound NOT metabolized
27  C[C@]12C=CC(=O)C=C1CC[C@@H]1[C@@H]2C(=O)C[C@@]2(C)[C@H]1CC[C@]2(O)C(=O)CO  Bacterial Biotransformation  Compound NOT metabolized
28  CC(C)NCC(O)c1ccc(NS(C)(=O)=O)cc1 (stereo not given)  Bacterial Biotransformation      Compound metabolized
29     CC(=O)OCC(CCn1cnc2cnc(N)nc21)COC(C)=O  Bacterial Biotransformation      Compound metabolized
30                 COc1c2occc2cc2ccc(=O)oc12  Bacterial Biotransformation  Compound NOT metabolized
